Entries and their TGI
system: NCI-H226 lung; assay: NCI tumour cell line growth inhibition, 48 h

COMPOUND | TGI
COCCN1CCN(Cc2ccc(-c3n[nH]c4c3C(=O)c3c(NC(=O)NN5CCOCC5)cccc3-4)cc2)CC1 | > 2.46 µM
CC(=O)[CH-]C(=O)c1ccccc1.CC(=O)[CH-]C(=O)c1ccccc1.Cl.[O-]c1ccccn1.[O-]c1ccccn1.[Ti+4] | > 100 µM
CNS(=O)(=O)NN(C)S(=O)(=O)c1ccc2ccccc2c1 | > 100 µM
CCOC(=O)c1c(-c2ccc(Br)cc2)ccn1C | > 10 µM
Cn1c2ccccc2c2c3[nH][nH]c(=O)c3c3c4ccccc4[nH]c3c21 | 22.6 µM
NC(Cc1ccc(S(=O)(=O)O)cc1)C(=O)NC(Cc1ccc(S(=O)(=O)O)cc1)C(=O)NC(Cc1ccc(S(=O)(=O)O)cc1)C(=O)O (centres undefined) | > 100 µM
CCCCCCCCCCCCCCCC(=O)OCC1OC(OC)C2NP(=O)(N(CCCl)CCCl)OC1C2O (centres undefined) | 32.2 µM
COc1ccc2c(c1)CCCN2S(=O)(=O)c1ccccc1[N+](=O)[O-] | > 96.2 µM
Cc1ccc(/C=C2\CCCC(CN(C)C)C2=O)cc1 (centres undefined) | 6.82 µM
O=C(O)CN1CCN(CC(=O)N2CCN(C(=O)OCc3ccccc3)CC2)CCN(CC(=O)O)CCN(CC(=O)N2CCN(C(=O)OCc3ccccc3)CC2)CC1 | > 100 µM
NCCSCc1ccccc1Cl | > 100 µM
O=c1c2cc(Cl)ccc2[nH]c2cc(O)cc(O)c12 | > 10 µM
O/N=C(\CC(O)(C(F)(F)F)C(F)(F)F)c1cccc(Cl)c1 | 60.2 µM
CCOC(=O)c1c(C)nc2c(c1N)CC(=O)N2CCc1ccccc1 | 69 µM

* * *

test system: HL-60(TB) leukemia; test: NCI tumour cell line growth inhibition, 48 h
Hi, to clarify the labels: t covers TGI from 60 µM upward, f covers anything below 60 µM.

COMPOUND | ASSIGNED_CLASS
CC(C)(C)c1cc(OCc2nnc3sc(=S)[nH]n23)c(Cl)cc1OCc1nnc2sc(=S)[nH]n12 | f
CC(=O)C1=C(C)N(C)C2(O)C=CC(=O)C3=C(O)c4ccccc4C(=O)C312 (stereo unspecified) | t
O=c1oc2ccc(Cl)cc2cc1-c1cn2ccccc2n1 | t
CC1(C)C(=O)/C=C\C(=O)C(C)(C)C(=O)/C=C\C(=O)C(C)(C)C(=O)/C=C\C(=O)C(C)(C)C(=O)/C=C\C1=O | f
O=C(O)CNn1c(SCC(=O)O)nnc(/C=C/c2c(O)ccc3ccccc23)c1=O | f
Clc1ccc(-c2ccc(-c3nnc(COc4ccc(OCc5nnc(-c6ccc(-c7ccc(Cl)cc7Cl)o6)o5)c(Cl)c4)o3)o2)c(Cl)c1 | t
COC(=O)c1ccccc1/C=C1\Cc2c(C)cc(C)cc2C1=O | t
C=C1C(=O)OC2CC(=C)C3CC=C(C)C3CC12 (stereo unspecified) | t
CC1(S)CC2C(CC1Sc1ccccc1)C2(C)C (stereo unspecified) | t
NC(N)=Nc1nc2ccc([N+](=O)[O-])cc2[nH]1 | t
Cc1cc(C(=O)O)c(C)n1-c1cccc(C(=O)O)c1 | t
CCOC(=O)CCC(NC(=O)OCc1ccccc1)C(=O)NC(CCC(=O)OCC)C(=O)NNC(=O)OC(C)(C)C (stereo unspecified) | t
COC(=O)[C@]1(c2cc3ccccc3[nH]2)CC2CN(CC(=O)N(C)OC)C1CC2(OC)OC (stereo partly specified) | f
O/N=C(\CC(O)(C(F)(F)F)C(F)(F)F)c1cccc(Cl)c1 | t
CCCCCCCCCCCCOc1ccc(/C=C/C2=[N+](CCCl)CCO2)cc1 | f

* * *

test system: SF-268 CNS; assay: NCI tumour cell line growth inhibition, 48 h
Where a SMILES comes first, the peptide text is derived from it. [ ]: non-standard residue; d: D form. The star is where a group is joined. ξ: configuration not given here. ξF = NC(Cc1ccccc1)C(=O)O; Cbz = O=C(OCc1ccccc1)*; Aib = CC(C)(N)C(=O)O

MOLECULE | MEASURED_TARGET | TGI
O=C(CC1(O)C(=O)Nc2ccccc21)c1ccc(O)cc1 (centres undefined) | SF-268 CNS | > 100 µM
COC(=O)C(C)(C)NC(=O)C(Cc1ccccc1)NC(=O)C(C)(C)NC(=O)OCc1ccccc1 (centres undefined) (Cbz-[Aib]-[ξF]-[Aib]-OMe) | SF-268 CNS | > 100 µM
N#Cc1c(O)cc(=O)n2c1[nH]c1ccccc12 | SF-268 CNS | > 100 µM
C=C(C)C(O)C(O)C[C@@H](C)C1CC[C@]23C[C@]12CCC1[C@@]2(C)CCC(OC(C)=O)C(C)(C)C2CC(OC2OC(CO)C(O)C(O)C2O)[C@]13C (some centres undefined) | SF-268 CNS | 33 µM

* * *

tested on: NCI-H23 lung; assay: NCI tumour cell line growth inhibition, 48 h

COMPOUND | TGI
COc1ccc(/C=C2\Sc3nnc(CNc4ccc(Cl)cc4)n3N=C2c2cc(F)c(Cl)cc2Cl)cc1OC | > 100 µM
O=[N+]([O-])c1ccccc1C=NC12CC3CC(CC(C3)C1)C2 | > 100 µM
O=c1oc2ccc(Cl)cc2cc1-c1cn2ccccc2n1 | 46.8 µM
NCCSCc1ccccc1Cl | 95 µM
Cc1cc2nc3cc(C)c(N)cc3[n+](-c3ccccc3)c2cc1N | > 63.5 µM
CC(C)CC(Nc1c(O)ccc2ccccc12)C(=O)O (centres undefined) | > 100 µM
CC(/C=C/c1ccccc1)=N\NC(N)=S | > 100 µM
Cc1ccc(C(O)(c2ccc(C)cc2)c2ccccn2)cc1 | > 100 µM
O=C(CN1CCOCC1)c1ccc2c(c1)oc(=O)n2CCN1CCCC1 | > 100 µM
COc1cc(S(=O)(=O)Nc2ccc(-c3csc(N4C(=O)C(Cl)C4c4ccccc4)n3)cc2)ccc1Cl (centres undefined) | 89.3 µM
C#CC1(O)c2ccccc2C(=O)c2ccccc21 | > 100 µM
COc1cc(C2C3=C(COC3=O)Nc3c2ccc2c3CCCC2)cc2c1OCO2 (centres undefined) | 13.7 µM
O=c1c2cc(I)ccc2nc(SCc2n[nH]c(=S)o2)n1Cc1ccccc1 | 34.2 µM
CN(C)S(=O)(=O)n1cnc(CO)c1 | > 100 µM
Cc1ccc(C2=Nc3c(N)ncnc3NC(c3ccc4c(c3)OCO4)C2)cc1 (centres undefined) | 63.3 µM
NC(=O)N/N=C(/Cc1nc2ccc(C(=O)c3ccccc3)cc2[nH]c1=O)C(=O)Nc1ccc(C(F)(F)F)cc1[N+](=O)[O-] | > 100 µM
N#Cc1c(O)c(N=Nc2ccc(Cl)cc2)c(=O)n2c1[nH]c1ccccc12 | > 100 µM
CN1CCN(Cc2ccc(NC(=O)c3cncc(C#Cc4cncc5nccnc45)c3)cc2C(F)(F)F)CC1 | 11 µM
Cc1cc(C(=O)NC(CCC(=O)O)C(=O)O)sc1CCC1CNc2nc(N)[nH]c(=O)c2C1 (centres undefined) | > 100 µM

* * *

test system: SN12C renal; test: NCI tumour cell line growth inhibition, 48 h
MEASURED_METRIC: TGI

MOLECULE | MEASURED_VALUE
CC1(C)OCC([C@H]2CC23SCCCS3)O1 (stereo partly specified) | > 100 µM
Cc1c(N/C=C(\C#N)C(=O)c2ccc(Cl)cc2)c(=O)n(-c2ccccc2)n1C | > 100 µM
COC(=O)C1C=NNC1C(=O)OC (stereo unspecified) | > 100 µM
Clc1ccc2nc(-c3ccccc3)nc(Cl)c2c1 | > 100 µM
[O-][N+]1=NC(c2ccccc2)=C1c1ccccc1 | > 50 µM
CCOC(=O)CCC(NC(=O)OCc1ccccc1)C(=O)NC(CCC(=O)OCC)C(=O)NNC(=O)OC(C)(C)C (stereo unspecified) | > 100 µM

* * *

system: HOP-92 NSCLC; test: NCI tumour cell line growth inhibition, 48 h

COMPOUND | MEASURED_TARGET | TGI
O=C1NC(N2CCCCC2)=N/C1=C\c1ccccc1O | HOP-92 NSCLC | > 100 µM
Oc1ccc(CCNCc2cc3c(cc2Br)OCO3)cc1 | HOP-92 NSCLC | > 100 µM
O=c1c2cc(Cl)ccc2[nH]c2cc(O)cc(O)c12 | HOP-92 NSCLC | > 10 µM
O=C(O)CN1CCN(CC(=O)N2CCN(C(=O)OCc3ccccc3)CC2)CCN(CC(=O)O)CCN(CC(=O)N2CCN(C(=O)OCc3ccccc3)CC2)CC1 | HOP-92 NSCLC | > 100 µM
C[C@]1(Cn2ccnn2)C(C(=O)O)N2C(=O)CC2S1(=O)=O (stereo partly drawn) | HOP-92 NSCLC | > 100 µM
Cc1cccc(N2C(=O)C(=O)C(c3nc4ccccc4s3)/C(=N/NC(=S)NN)C2=O)c1C (stereo not drawn) | HOP-92 NSCLC | > 100 µM
CCC(=O)Nc1ccccc1C#C/C=C\C#Cc1ccccc1C(F)(F)F | HOP-92 NSCLC | > 36.1 µM
CC(C)n1nc(-c2ccc3oc(N)nc3c2)c2c(N)ncnc21 | HOP-92 NSCLC | < 0.01 µM
Cc1ccc(N2CCN(CCC(=O)O)CC2)cc1 | HOP-92 NSCLC | > 100 µM
COc1ccc2c(c1)[n+]([O-])c(-c1ccc(C)cc1)c(N)[n+]2[O-] | HOP-92 NSCLC | > 100 µM
CN1C=Cc2nccc3cc4c(c1c23)OCO4 | HOP-92 NSCLC | > 68.5 µM
CCN(CC)CCCNc1nc(=O)[nH]c(C)c1C(=O)Nc1ccc2c(c1)c1ccccc1n2CC | HOP-92 NSCLC | > 100 µM
CC(=O)C(CN(C)C)C(c1ccccc1)c1c(O)c2ccccc2oc1=O (stereo not drawn) | HOP-92 NSCLC | > 100 µM
CO[C@@H]1C[C@H]2N3CC[C@@]2(c2cc4c(cc2C3)OCO4)[C@H]2O[C@@H]12 | HOP-92 NSCLC | > 100 µM
COc1cc(-c2cc(/C=C/C(=O)c3ccc(Cl)c(Cl)c3)[nH]n2)cc(OC)c1OC | HOP-92 NSCLC | 8.25 µM
O=c1[nH]nc(Cn2c3ccc(Br)cc3c3nc4ccccc4nc32)n1C1CCCCC1 | HOP-92 NSCLC | 63.3 µM
COc1ccc(/C=c2/sc3n(c2=O)NC2(CCC(C)CC2)NN=3)cc1 (stereo not drawn) | HOP-92 NSCLC | > 100 µM
CC1(C)C=N[N+]2(C)C3C=CC(CC3)C12 (stereo not drawn) | HOP-92 NSCLC | > 100 µM
O=S(=O)([O-])[O-].[Cl-].[NH2-].[NH2-].[NH2-].[NH2-].[Ru+3].c1ccncc1 | HOP-92 NSCLC | > 100 µM
CCCCNC(=O)c1cc(NCc2cc(O)ccc2O)ccc1O | HOP-92 NSCLC | 21.7 µM
COC1C(OC(=O)/C=C/C=C/C=C/C=C\C(=O)O)CCC2(CO2)C1C1(C)OC1CC=C(C)C (stereo not drawn) | HOP-92 NSCLC | > 200 µM
O=S1(=O)CCCS(=O)(=O)C(c2ccccc2)=C1c1ccccc1 | HOP-92 NSCLC | 85.3 µM
COC(=O)C1=C(C(=O)OC)SC(=C2S[C@@H]3[C@@H]4C[C@H]([C@@H]3S2)[C@H]2C(=O)OC(=O)[C@@H]42)S1 | HOP-92 NSCLC | > 100 µM
